- Tested on: velvetleaf (Abutilon theophrasti)
- assay explanation: General postemergence herbicidal activity, ABUTH
- Format: in vivo
- condition label: Abutilon theophrasti, post-emergence, 336 h, 280 g ai/ha, postemergence spray, visual score after 14 days, 0 = no injury, 100 = complete kill; read-out: Post-emergent Weed Control ABUTH
Quick list: pest or weed control at 280 g/ha per entry.
observable: pest or weed control at 280 g/ha (%)

smiles record | observable | unit label | measured
COC(=O)c1nc(-c2ccc(Cl)c(OC)c2F)cc(N)c1C(F)F | pest or weed control at 280 g/ha | % | 100
C=Cc1c(N)nc(-c2cc(OC)c(Cl)cc2F)nc1C(=O)OC | pest or weed control at 280 g/ha | % | 100
COC(=O)c1nc(-c2ccc(Cl)c(OC)c2F)nc(N)c1C(F)F | pest or weed control at 280 g/ha | % | 75
CCOC(=O)c1nc(C2CC2)nc(N)c1C | pest or weed control at 280 g/ha | % | 15
COC(=O)c1nc(-c2ccc(Cl)c(OC)c2F)nc(N)c1/C=C/SC | pest or weed control at 280 g/ha | % | 90
COC(=O)c1nc(-c2ccc(Cl)c(OC)c2F)nc(N)c1/C=C/Br | pest or weed control at 280 g/ha | % | 80
COC(=O)c1nc(-c2ccc(Cl)c(OC)c2F)nc(N)c1C | pest or weed control at 280 g/ha | % | 95
C=Cc1c(N)cc(-c2ccc(Cl)c(OC)c2F)nc1C(=O)OC | pest or weed control at 280 g/ha | % | 85
C=Cc1c(N)nc(-c2ccc(Cl)cc2)nc1C(=O)OC | pest or weed control at 280 g/ha | % | 100
COc1c(Cl)ccc(-c2cc(N)c(C)c(C(=O)O)n2)c1F | pest or weed control at 280 g/ha | % | 90
C=Cc1c(N)nc(-c2ccc(Cl)c(OC)c2)nc1C(=O)O | pest or weed control at 280 g/ha | % | 0
COC(=O)c1nc(-c2ccc(Cl)c(OC)c2F)cc(N)c1C | pest or weed control at 280 g/ha | % | 80
C=Cc1c(N)nc(-c2ccc(Cl)c(N(C)C)c2F)nc1C(=O)OC | pest or weed control at 280 g/ha | % | 100
C=C(OCC)c1c(N)nc(-c2ccc(Cl)c(OC)c2F)nc1C(=O)OC | pest or weed control at 280 g/ha | % | 50
COC(=O)c1nc(-c2ccc(Cl)c(OC)c2F)nc(N)c1C(C)=O | pest or weed control at 280 g/ha | % | 70
C=Cc1c(N)nc(-c2ccc(Cl)c(OC)c2)nc1C(=O)OC | pest or weed control at 280 g/ha | % | 60
C=Cc1c(N)nc(-c2cc(C)c(Cl)cc2F)nc1C(=O)OC | pest or weed control at 280 g/ha | % | 90

Data provenance: patent US8658791B2
